assayMethodText: compound binding in COS7 lysate, probe aLAP1, primary screen, cell lysate, small-molecule microarray (AID 1124);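 note: lysate comes from COS7 cells expressing LAP1 and is applied at 0.3 µg/mL; score merges spot fluorescence near 667 nm with signal-to-noise over triplicate slides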
measurementParameters: probe aLAP1, fluorescence, higher = more signal
Record form. Attribute: composite z-score. Fill in for each entry.
Answers are plain numbers.

Please review the entries below; each comes with its answer.
Query: Looking for the measured composite z-score of O=C1NC(=O)C2C1C=CC(C(O)c1cccs1)N2Nc1ccc(Cl)cc1Cl (stereo not drawn) , can you help?
Reply: 0.293

Query: Quick one: composite z-score for O=C1O[C@@H](c2ccccc2)[C@@H](c2ccccc2)N2[C@@H](c3ccccc3OCCO)[C@]3(C(=O)Nc4ccccc43)[C@@H](C(=O)Nc3nc4ccccc4s3)[C@H]12 ?
Reply: 0.485

Query: Fill in: composite z-score of C=CC[C@]1(C(=O)NCc2ccccc2)N=C(c2ccc(OCCCO)cc2)O[C@H]1c1ccccc1N=[N+]=[N-] is ___
Reply: 0.727

Query: # get_value(readout='composite z-score', item= CCCCC(CC)C(O)C1C=CC2C(=O)N(Cc3ccccc3)C(=O)C2N1n1cnnc1 (stereo not drawn) )
Reply: -0.192

Query: Quick one: composite z-score of C=CCOC(=O)[C@H]1[C@@H]2C(=O)O[C@@H](c3ccccc3)[C@@H](c3ccccc3)N2[C@@H](c2ccc(OCCOC(=O)[C@H]3C[C@H]4C(=O)N[C@@H](CCCCNC(C)=O)C(=O)N4[C@H]3c3ccc(O)cc3)cc2)[C@]12C(=O)Nc1ccc(I)cc12 ?
Reply: 0.0563

Query: Which composite z-score is listed for C=CC1(C(=O)OC)CC=C(C(=O)OC)CC1 (stereo not drawn) ?
Reply: 0.872

Below are 8 compounds. Give each one its composite z-score.
1. COCCOC(=O)N1C(=O)[C@@]2(c3cc(C#CCC(C(=O)OC)C(=O)OC)ccc31)[C@H](C(=O)Nc1nc3ccccc3s1)[C@H]1C(=O)O[C@H](c3ccccc3)[C@H](c3ccccc3)N1[C@@H]2c1ccccc1OCCO
2. CCCc1cc2c(n1Cc1cc(F)cc(F)c1)C(C)C1CN(C(=O)c3ccccc3)C(C)(C(=O)OC)C21 (stereo not drawn)
3. COC(=O)[C@@]1(Cc2ccc(F)cc2)[C@H]2c3cc(C(=O)N4CCCC4)n(CCCNc4ncc(C(F)(F)F)cc4Cl)c3C[C@H]2CN1C(=O)c1ccccc1
4. C=CCNC(=O)[C@@H]1[C@H]2C(=O)O[C@H](c3ccccc3)[C@H](c3ccccc3)N2[C@H](c2ccccc2OCCO)[C@@]12C(=O)N(C(=O)OCCOC)c1ccccc12
5. C=CC[C@@]12N=C(c3ccc(OCCCO)cc3)O[C@@H]1c1ccccc1N(C)C2=O
6. C=C(CCCC)C(=O)CC[C@@H](OC(=O)c1ccccc1-c1ccccc1C(=O)O)c1ccc(OCCO)cc1
7. O=C(NCCN1CCOCC1)C1N=C(c2ccc(OCCCO)cc2)N(c2ccccc2)O1 (stereo not drawn)
8. O=C1C[C@@](C(=O)NC2CC2)(c2ccc([N+](=O)[O-])cc2)[C@@H](c2ccc(CO)cc2I)N1C1CCCCC1

Reply:
1. 0.581
2. 1.07
3. -0.252
4. 0.594
5. 0.319
6. -0.102
7. 0.908
8. -0.0328

Provide reported composite z-score for each item, in the same order as listed.
1. O=C(OCc1ccccc1)C1=CCC2c3[nH]c4ccccc4c3C(=O)C1N2S(=O)(=O)c1ccccc1[N+](=O)[O-] (stereo not drawn)
2. COCCOC(=O)N1C(=O)[C@@]2(c3cc(C#Cc4ccc(OC)cc4)ccc31)[C@H](c1ccccc1OCCO)N1[C@H](c3ccccc3)[C@H](c3ccccc3)OC(=O)[C@H]1[C@@H]2C(=O)NC[C@H](O)c1ccccc1
3. CCOC(=O)C[C@H]1[C@H](OC(=O)c2ccccc2-c2ccccc2)[C@@H](NC(=O)CC(C)C)c2cc(OCCCO)ccc2N1C(=O)Cc1ccc(OC)cc1
4. CN(C)CCCCCCNC(=O)[C@@H]1C[C@@H]2C(=O)N[C@@H](Cc3ccccc3)C(=O)N2[C@@H]1c1ccc(O)cc1

Reply:
1: 0.335; 2: 0.618; 3: -0.201; 4: -0.453

Provenance of the data: PubChem BioAssay
